Test system: RXF 393
Experiment description: NCI tumour cell line growth inhibition, 48 h
Active and inactive are the calls of the source. Cut-off read from the data, not from the text of the source: active = GI50 up to about 1.1 µM and inactive = higher.
Endpoint: GI50

C[n+]1cccc2c(=O)c3ccccc3oc21	> 100 µM (inactive)
N=C(N)NS(=O)(=O)c1ccc(NC(=O)c2ccc3nc4ccccc4c(O)c3c2)cc1	> 100 µM (inactive)
CC1(C)O[C@H]2OC3CCC(=O)CC3(O)[C@H]2O1 (stereo partly drawn)	> 100 µM (inactive)
Cc1cccc2c(N)c3cccc(C(=O)NCCCNCCN)c3nc12	3.4 µM (inactive)
CCCCc1ccc(Nc2nc(OC)c3ncn(C4CC(O)C(CO)O4)c3n2)cc1 (stereo not drawn)	14.8 µM (inactive)
C[Si](C)(C)C1=C([Si](C)(C)C)C(Cl)(Cl)C1=O	1.9 µM (inactive)
Nc1ccc2c3[nH]c4cc(N)ccc4cc-3nc2c1	0.32 µM (active)
[N-]=[N+]=CC(=O)C1CCN(c2ccccc2)C1=O (stereo not drawn)	> 10 µM (inactive)
